- measuredOn: DNA repair protein RAD51 homolog 1 (Homo sapiens)
- assayDetails: concentration-dependent blocking of RAD51 activity – biochemical, homologous recombination, fluorescence, dose response (AID 1435)
In this section we review reported IC50 values for a set of compounds.

Record excerpt, results attached:
compound	IC50
O=C(c1ccc2ccccc2n1)N1CCN(c2ccccc2O)CC1	> 85 µM
COc1ccc(S(=O)(=O)NC(C)C(=O)Nc2ccccc2C(F)(F)F)cc1 (stereo unspecified)	> 85 µM

Request: Give a short answer stating reported IC50 for Cc1[nH]nc2c1C(=O)CCC2 .
Response: > 85 µM

Request: Give a short answer stating reported IC50 for COCCn1c(=NC(=O)CSC(C)=O)sc2cc(F)ccc21 .
Response: > 85 µM

Request: Give a short answer stating reported IC50 for Cc1cc2nc3c(nc2cc1C)C1(C(=O)O)CCC3(C)C1(C)C (stereo unspecified) .
Response: 37.1 µM

Request: Give a short answer stating reported IC50 for O=C(CSc1nnc(Cc2ccccc2)o1)N1CCc2ccccc21 .
Response: > 85 µM

###

In this section we review reported IC50 values for a set of compounds.
- measuredOn: DNA repair protein RAD51 homolog 1 (Homo sapiens)
- Sequence (Q06609 whole entry): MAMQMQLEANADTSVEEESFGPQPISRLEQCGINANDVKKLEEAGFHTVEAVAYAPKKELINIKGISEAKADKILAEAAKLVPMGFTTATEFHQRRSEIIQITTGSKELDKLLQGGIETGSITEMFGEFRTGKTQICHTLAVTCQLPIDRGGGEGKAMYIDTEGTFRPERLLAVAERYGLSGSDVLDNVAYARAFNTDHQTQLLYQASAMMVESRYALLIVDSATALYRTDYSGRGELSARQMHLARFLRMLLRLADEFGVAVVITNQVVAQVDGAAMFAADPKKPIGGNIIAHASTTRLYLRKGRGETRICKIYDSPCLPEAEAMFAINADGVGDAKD
- assayDetails: concentration-dependent blocking of RAD51 activity – biochemical, homologous recombination, fluorescence, dose response (AID 1435)
- measurementParameters: inactive by the depositor's call
Hi! Could you send only the number? It should be in µM, unit omitted.

Record excerpt, results attached:
compound	IC50, µM
O=C(CN1C(=O)C2CC=CCC2C1=O)Nc1nccs1 (stereo not given) [MLS000054855]	42.5
O=C(CN1C(=O)c2ccccc2S1(=O)=O)Nc1ccc(S(=O)(=O)N2CCCCC2)cc1 [SMR000074755]	42.5
CCOc1ccc(OCC)c(NC(=O)C2CCN(c3ncccn3)CC2)c1	42.5
O=C(NC1CCCCC1)c1cc([N+](=O)[O-])ccc1N1CCCCC1 [Glucosamine derivative, 8]	42.5

Proceeding to the next compound to report its IC50.
Request: Give a short answer stating reported IC50 for CCOC(=O)Cn1c(=O)c2c(nc(N3CCCCC3)n2Cc2ccccc2)n(C)c1=O .
Response: 1.4
